B1: Hairpin Ribozyme (parent)
chain: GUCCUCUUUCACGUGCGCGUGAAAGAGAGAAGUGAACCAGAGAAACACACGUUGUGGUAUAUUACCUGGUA

- Variants of: B1
- measurementDescription: self-cleavage, relative activity (ratio to wild type); higher = more cleavage; co-transcriptional
measuredAttribute: self-cleavage
Give the figure by itself; no unit, no explanation.

U2G G13A; 0.338

stdin: Quick one: self-cleavage for C4G G56U ?
stdout: 0.148

stdin: Quick one: self-cleavage for C3G A31U ?
stdout: 0.057

stdin: Recorded self-cleavage of A36U A64G , please.
stdout: 0.219

stdin: Look up self-cleavage: U33G U62G
stdout: 0.0966

stdin: Given the entry C50G U70G , report its measured self-cleavage.
stdout: 0.314

stdin: Any idea what self-cleavage was measured for U14A A45G ?
stdout: 0.0459

stdin: Using the record for G17U G69U , report its self-cleavage.
stdout: 0.258

stdin: Look up self-cleavage: A24C A28G
stdout: 1.13

stdin: Name the recorded self-cleavage for G19C G21C .
stdout: 0.493

stdin: Consider the variant shown here: U33C C48U What is its recorded self-cleavage?
stdout: 0.118

stdin: Give its self-cleavage value. Item: U53A G56C
stdout: 0.208

stdin: GET /values?readout=self-cleavage&item= G32U G40A
stdout: 0.122

stdin: What measured self-cleavage goes with C38A G51A ?
stdout: 0.349

stdin: Item G40A U70C has what recorded self-cleavage?
stdout: 0.136

stdin: What value of self-cleavage has been recorded for this entry: A28G A61C
stdout: 0.434

stdin: For the variant shown here, G68A G69A , give the reported self-cleavage.
stdout: 0.103

stdin: // returns reported self-cleavage for input A22U G54A
stdout: 0.335

stdin: # input variant: U7A A11G ; wanted: its self-cleavage
stdout: 0.855

stdin: Need self-cleavage of A31C C65G , thanks.
stdout: 0.116

stdin: Look at this variant and give its reported self-cleavage. U7G U52G
stdout: 0.779

stdin: Given G51A A71C , state its recorded self-cleavage.
stdout: 1.49
